- Tested on: 786-0 complex spheroids with HUVEC/MSC, growth % test/control
- experiment summary: Anticancer human tumor 786-0 cell line growth inhibition [AhR];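 note: compound exposure lasted seven days before the read-out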
- run conditions: second compound 1 µM; first compound 3.16 µM; stronger effect = lower value
recorded endpoint: viability, T/C (%)
One number for each entry, in %.

Working through the 4 molecules below one at a time, give viability, T/C for each.
1. Nc1ccn(C2OC(CO)C(O)C2(F)F)c(=O)n1 (configuration not stated) + CC(CO)NC(=O)c1cc(-c2ccc(Cl)cc2)nn(-c2cnn(C)c2)c1=O
2. CC1(C)CCC(CN2CCN(c3ccc(C(=O)NS(=O)(=O)c4ccc(NCC5CCOCC5)c([N+](=O)[O-])c4)c(Oc4cnc5[nH]ccc5c4)c3)CC2)=C(c2ccc(Cl)cc2)C1 + Cc1cncc(-c2nc(NCCc3c[nH]c4ccccc34)c3ncn(C(C)C)c3n2)c1
3. O=C(c1cc(Cc2n[nH]c(=O)c3ccccc23)ccc1F)N1CCN(C(=O)C2CC2)CC1 + Cc1cncc(-c2nc(NCCc3c[nH]c4ccccc34)c3ncn(C(C)C)c3n2)c1
4. CC1COCCN1c1cc(C2(S(C)(=N)=O)CC2)nc(-c2ccnc3[nH]ccc23)n1 (configuration not stated) + Cc1cncc(-c2nc(NCCc3c[nH]c4ccccc34)c3ncn(C(C)C)c3n2)c1

Output line:
[4.33, 102, 121, 67]

* * *

I'd appreciate it if you could supply viability, T/C values for the items below.
- Test system: 786-0 complex spheroids with HUVEC/MSC, growth % test/control
- experiment summary: Anticancer human tumor 786-0 cell line growth inhibition [AhR];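 note: compound exposure lasted seven days before the read-out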
- run conditions: second compound 3.16 µM; first compound 0.01 µM; stronger effect = lower value

molecule	target of assay	viability, T/C
Nc1ncn(C2CC(O)C(CO)O2)c(=O)n1 (stereo not drawn) + Cc1ccccc1N=Nc1ccc(NC(=O)c2ccnn2C)c(C)c1	786-0 complex spheroids with HUVEC/MSC, growth % test/control	102%
CC1COCCN1c1cc(-c2ccnn2C)c2ccnc(-c3ccn[nH]3)c2n1 (stereo not drawn) + CC(CO)NC(=O)c1cc(-c2ccc(Cl)cc2)nn(-c2cnn(C)c2)c1=O	786-0 complex spheroids with HUVEC/MSC, growth % test/control	114%

Please examine the following record next.
Input line: Which viability, T/C reading was recorded for the molecule CC[C@@]1(O)C(=O)OCc2c1cc1n(c2=O)Cc2cc3c(CN(C)C)c(O)ccc3nc2-1 + Cc1cncc(-c2nc(NCCc3c[nH]c4ccccc34)c3ncn(C(C)C)c3n2)c1 ?
Output line: 83%

* * *

- Test system: 786-0 complex spheroids with HUVEC/MSC, growth % test/control
- experiment summary: Anticancer human tumor 786-0 cell line growth inhibition [AhR];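 note: compound exposure lasted seven days before the read-out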
- run conditions: curve of first compound; second compound 10 µM
I'd appreciate it if you could supply log10 of IC50 values for the items below.
Plainly stated, the numbers are log10 of IC50 given in nM.

Examples from the recorded data:
compound	reported value
CC(C)CC(NC(=O)C(Cc1ccccc1)NC(=O)c1cnccn1)B(O)O (stereo not given) + CC(CO)NC(=O)c1cc(-c2ccc(Cl)cc2)nn(-c2cnn(C)c2)c1=O	0.90
CCc1c2c(nc3ccc(O)cc13)-c1cc3c(c(=O)n1C2)COC(=O)[C@]3(O)CC + Cc1ccccc1N=Nc1ccc(NC(=O)c2ccnn2C)c(C)c1	0.71

Working through the 8 compounds below one at a time, give log10 of IC50 for each.
1. O=C(C=Cc1cccc(S(=O)(=O)Nc2ccccc2)c1)NO + Cc1ccccc1N=Nc1ccc(NC(=O)c2ccnn2C)c(C)c1
2. CC[C@@]1(O)C(=O)OCc2c1cc1n(c2=O)Cc2cc3c(CN(C)C)c(O)ccc3nc2-1 + CC(CO)NC(=O)c1cc(-c2ccc(Cl)cc2)nn(-c2cnn(C)c2)c1=O
3. Nc1ccccc1NC(=O)c1ccc(CNC(=O)OCc2cccnc2)cc1 + CC(CO)NC(=O)c1cc(-c2ccc(Cl)cc2)nn(-c2cnn(C)c2)c1=O
4. O=C(C=Cc1cccc(S(=O)(=O)Nc2ccccc2)c1)NO + CC(CO)NC(=O)c1cc(-c2ccc(Cl)cc2)nn(-c2cnn(C)c2)c1=O
5. NS(=O)(=O)OCC1CC(n2ccc3c(NC4CCc5ccccc54)ncnc32)CC1O (stereo not given) + Cc1ccccc1N=Nc1ccc(NC(=O)c2ccnn2C)c(C)c1
6. CC(C)CC(NC(=O)C(Cc1ccccc1)NC(=O)c1cnccn1)B(O)O (stereo not given) + Cc1ccccc1N=Nc1ccc(NC(=O)c2ccnn2C)c(C)c1
7. O=C(C=Cn1cnc(-c2cc(C(F)(F)F)cc(C(F)(F)F)c2)n1)NNc1cnccn1 + Cc1ccccc1N=Nc1ccc(NC(=O)c2ccnn2C)c(C)c1
8. CCc1c2c(nc3ccc(O)cc13)-c1cc3c(c(=O)n1C2)COC(=O)[C@]3(O)CC + CC(CO)NC(=O)c1cc(-c2ccc(Cl)cc2)nn(-c2cnn(C)c2)c1=O

Output line:
1. 3.66
2. 1.71
3. 3.61
4. 3.67
5. 2.57
6. 1.24
7. 2.63
8. 0.35

Input line: Which log10 of IC50 reading was recorded for the compound Nc1ccccc1NC(=O)c1ccc(CNC(=O)OCc2cccnc2)cc1 + Cc1ccccc1N=Nc1ccc(NC(=O)c2ccnn2C)c(C)c1 ?
Output line: 3.76
